Listing of Ki toward Apoptosis regulator Bcl-2 (Homo sapiens, UniProt P10415), each taken from a published source.
REPORTED PROPERTY: Ki (µM)

# annotated cases, reported Ki shown
MOLECULE: O=C([C@@H]1[C@@H](CO)[C@@H]2Cn3c(cccc3=O)[C@@H]2N1Cc1ccc(Cl)c(Cl)c1)N1CCC(c2ccc(F)cc2)CC1
Ki, µM: 2.2
//
MOLECULE: CC[C@H](C)[C@H](NC(C)=O)C(=O)Nc1ccc(C(=O)NS(=O)(=O)c2ccc(NCCSc3ccccc3)c([N+](=O)[O-])c2)cc1
Ki, µM: 3.38
//
MOLECULE: Cc1cccc(-c2ccc(C[C@@H]3NC(=O)N([C@@H](Cc4ccccc4)C(=O)NS(=O)(=O)c4ccc(Cl)c([N+](=O)[O-])c4)C3=O)cc2)c1
Ki, µM: 4.4
//
MOLECULE: O=C(O)CSc1cc(NS(=O)(=O)c2ccc(Br)cc2)c2ccccc2c1O
Ki, µM: 11

(a) CSCC[C@@H](C(=O)NS(=O)(=O)c1ccccc1)N1C(=O)/C(=C/c2ccc(-c3ccccc3)cc2)SC1=S
(b) CN(C)CCCC(O)(c1ccccc1)c1ccc(OCc2cccc(-c3ccc(C(=O)O)cc3)c2)cc1 (stereo not given)
**Query** For the pair a and b , which entry has the numerically smaller recorded Ki? // caller expects the label of the chosen entry
**Result** a
(a: 0.95 µM, b: 5.8 µM)

(A) O=C(/C=C/c1ccc(Cl)cc1)Nc1ccc(C(=O)NS(=O)(=O)c2ccc(NCCSc3ccccc3)c([N+](=O)[O-])c2)cc1
(B) CCc1sc2nc(-c3cccnc3)nc(N[C@H](C)C(=O)O)c2c1-c1cccc(Oc2ccc(F)cc2)c1
**Query** For the pair A and B , which entry has the numerically smaller recorded Ki? // caller expects the label of the chosen entry
**Result** A

###

pKi: −log10 of the molar value.
Listing of pKi toward Apoptosis regulator Bcl-2 (Homo sapiens), each taken from a published source.

# annotated cases, reported pKi shown
STRUCTURE SMILES STRING: CCCOc1ccc(C[C@H](NC(=O)c2cn(Cc3ccc(-c4ccc(Cl)cc4)cc3)c3ccccc23)C(=O)NS(=O)(=O)c2ccc([N+](=O)[O-])cc2)cc1
TARGET OF ASSAY: Apoptosis regulator Bcl-2 (Homo sapiens)
Sequence (P10415 whole entry): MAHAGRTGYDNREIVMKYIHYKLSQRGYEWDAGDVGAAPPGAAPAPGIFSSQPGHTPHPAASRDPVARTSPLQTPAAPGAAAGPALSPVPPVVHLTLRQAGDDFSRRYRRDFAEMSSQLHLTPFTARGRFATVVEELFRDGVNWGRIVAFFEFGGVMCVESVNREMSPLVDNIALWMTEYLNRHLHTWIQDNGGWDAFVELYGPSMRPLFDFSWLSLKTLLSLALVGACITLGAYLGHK
pKi: < 5.00

STRUCTURE SMILES STRING: Cc1cccc(N2C(=O)/C(=C/c3ccc(OCC(=O)Nc4ccc(C(=O)O)cc4)cc3)SC2=S)c1
TARGET OF ASSAY: Apoptosis regulator Bcl-2 (Homo sapiens)
pKi: < 5.00

STRUCTURE SMILES STRING: COC1(Cc2ccc(-c3ccccc3)cc2)CCN(c2ccc(C(=O)NS(=O)(=O)c3ccc(N[C@H](CCN(C)C)CSc4ccccc4)c([N+](=O)[O-])c3)cc2)CC1
TARGET OF ASSAY: Apoptosis regulator Bcl-2 (Homo sapiens)
pKi: > 9.00

**Query** Which pKi is listed for CN(C)CC[C@H](CSc1ccccc1)Nc1ccc(S(=O)(=O)NC(=O)c2ccc(N3CCN(Cc4ccccc4-c4ccc(Cl)cc4)CC3)cc2)cc1OC(F)(F)F ?
**Result** > 9.00

###

pKi: −log10 of the molar value.
Listing of pKi toward Apoptosis regulator Bcl-2 (Homo sapiens), each taken from a published source.
REPORTED PROPERTY: pKi

STRUCTURE SMILES STRING: Cc1cc(Oc2ccc(Cn3nc4ccc(Cl)cc4c3C(=O)NS(=O)(=O)c3ccc(NCCN4CCOCC4)c([N+](=O)[O-])c3)cc2)cc(C)c1Cl
pKi: 6.38

(I) COc1ccccc1CN1CCN(c2ccc(C(=O)NS(=O)(=O)c3ccc(N[C@H](CCN(C)C)CSc4ccccc4)c([N+](=O)[O-])c3)cc2)CC1
(II) COc1ccc2c(c1)c(CC(=O)N[C@@H](Cc1c[nH]c3ccccc13)C(=O)NS(=O)(=O)c1ccc(Cl)c([N+](=O)[O-])c1)c(C)n2-c1ccc(-c2ccccc2)cc1
(III) CCOc1ccc(-c2c(NC(=O)c3ccc(C(C)(C)C)cc3)c(C(=O)O)nn2-c2ccc(Oc3ccccc3)cc2)cc1
(IV) Cc1ccc(/C=C/C(=O)Nc2ccc(C(=O)NS(=O)(=O)c3ccc(NCCSc4ccccc4)c([N+](=O)[O-])c3)cc2)cc1
**Query** # sort list by recorded pKi, greatest to least # respond with the labels, arranged in the requested order
**Result** I, III, II, IV

(A) CN(C)CC[C@H](CSc1ccccc1)Nc1ccc(S(=O)(=O)NC(=O)c2ccc(N3CCC(=Cc4ccc(F)cc4)CC3)cc2)cc1[N+](=O)[O-]
(B) CC1(C)CC(c2ccc(Cl)cc2)=C2CN3CCN(c4ccc(C(=O)NS(=O)(=O)c5ccc(NC[C@H]6CC[C@](C)(O)CC6)c(Cl)c5)c(N5CCCOc6nc7[nH]ccc7cc65)c4)C[C@H]3COCCCO[C@@H]2C1
(C) CN(C)CC[C@H](CSc1ccccc1)Nc1ccc(S(=O)(=O)NC(=O)c2ccc(N3CCC(=Cc4cccnc4)CC3)cc2)cc1[N+](=O)[O-]
(D) CCCn1c(C)c(C(=O)O)c(-c2cccc(N3CCN(c4ccc(NS(=O)(=O)c5ccc(N[C@H](CCN6CCC(O)CC6)CSc6ccccc6)c(S(=O)(=O)C(F)(F)F)c5)cc4)CC3)c2)c1-c1ccc(Cl)cc1
(E) Cc1cc(OCCCn2c(C(=O)N3CCCCC3)cc3ccc(OCc4ccccc4C(=O)O)cc32)cc(C)c1Cl
**Query** # sort list by recorded pKi, greatest to least # respond with the labels, arranged in the requested order
**Result** B, A, D, C, E

(a) O=C1c2ccc(Sc3ccccc3)cc2C(=O)c2cc(O)c(O)cc21
(b) Cc1c(C(=O)O)c(-c2cccc(N3CCN(c4ccc(NS(=O)(=O)c5ccc(N[C@H](CCN6CCC6)CSc6ccccc6)c(S(=O)(=O)C(F)(F)F)c5)cc4)CC3)c2)c(-c2ccc(Cl)cc2)n1C
**Query** Which numeric pKi is bigger, that of a or that of b ? // caller expects the label of the chosen entry
**Result** b

(A) CCCCn1c(C)c(C(=O)O)c(-c2cccc(N3CCN(c4ccc(NS(=O)(=O)c5ccc(N[C@H](CCN6CCC(O)CC6)CSc6ccccc6)c(S(=O)(=O)C(F)(F)F)c5)cc4)CC3)c2)c1-c1ccc(Cl)cc1
(B) O=C(NS(=O)(=O)c1ccc([N+](=O)[O-])cc1)[C@H](Cc1ccc(Br)cc1)N1C(=O)/C(=C/c2ccc(-c3ccc([N+](=O)[O-])cc3)cc2)SC1=S
**Query** For the pair A and B , which entry has the numerically smaller recorded pKi? // caller expects the label of the chosen entry
**Result** B

###

pKi: −log10 of the molar value.
Listing of pKi toward Apoptosis regulator Bcl-2 (Homo sapiens, UniProt P10415), each taken from a published source.
REPORTED PROPERTY: pKi

# annotated cases, reported pKi shown
COMPOUND: CCOC(=O)C1=C(N)Oc2ccc(CC)cc2C1C(C#N)C(=O)OCC (stereo unspecified)
pKi: 3.68

COMPOUND: O=S(=O)(NCCNC(=S)Nc1cc(C(F)(F)F)cc(C(F)(F)F)c1)c1cc(-c2ccccc2Oc2ccc(O)c(O)c2)cs1
pKi: 5.34

COMPOUND: C=C(C)c1sc2ncnc(N[C@H](Cc3ccccc3)C(=O)O)c2c1-c1cccc(Cl)c1C
pKi: 5.27

COMPOUND: COc1cc(CCC(=O)N(C)C)ccc1-c1ccc(C(=O)NS(=O)(=O)c2ccc(NCCSc3ccccc3)c([N+](=O)[O-])c2)cc1
pKi: 6.40

COMPOUND: CCc1sc2ncnc(N[C@@H](C)C(=O)O)c2c1-c1cccc(Oc2ccc(F)cc2)c1
pKi: 4.01

COMPOUND: O=C(O)c1ccc(-c2ccc(OCCc3cc(C(O)(CCN4CCOCC4)c4ccc(Cl)cc4)ccc3Cl)cc2)cc1 (stereo unspecified)
pKi: 6.66

(1) CN(C)CC[C@@H](CSc1ccccc1)Nc1ccc(S(=O)(=O)NC(=O)c2ccc(N3CCC(C)(C)CC3)cc2)cc1[N+](=O)[O-]
(2) Cc1cc(Oc2ccc(Cn3nc4ccc(Cl)cc4c3C(=O)NS(=O)(=O)c3ccc(NCCc4ccncc4)c([N+](=O)[O-])c3)cc2)cc(C)c1Cl
(3) O=C(NCCNS(=O)(=O)c1cc(-c2ccccc2Oc2ccc(O)c(O)c2)cs1)Nc1cc(Cl)cc(Cl)c1
(4) O=C(Nc1nc2ccccc2s1)c1cccc2c1CN(c1ccc(-c3cn(Cc4ccccc4)nn3)c(C(=O)O)n1)CC2
**Query** # sort list by recorded pKi, greatest to least # respond with the labels, arranged in the requested order
**Result** 4, 2, 1, 3
(4: 6.46, 2: 6.18, 1: 5.90, 3: 5.08)

(I) O=C(NS(=O)(=O)c1ccc(Cl)c([N+](=O)[O-])c1)[C@H](Cc1c[nH]c2ccccc12)N1C(=O)/C(=C/c2ccc(-c3ccc([N+](=O)[O-])cc3)cc2)SC1=S
(II) COc1cc(CCCN2CCOCC2)ccc1-c1ccc(C(=O)NS(=O)(=O)c2ccc(N[C@@H](CCN(C)C)CSc3ccccc3)c([N+](=O)[O-])c2)cc1
(III) C[C@@H](Nc1ncnc2sc(-c3ccccc3)c(-c3cccc(O)c3)c12)C(=O)O
(IV) CC(C)(C)c1ccc(C(O)(CCN2CCOCC2)c2ccc(Cl)c(CCOc3ccc(-c4ccc(C(=O)O)cc4)cc3)c2)cc1 (stereo unspecified)
**Query** # sort list by recorded pKi, greatest to least # respond with the labels, arranged in the requested order
**Result** IV, I, II, III
(IV: 6.96, I: 6.12, II: 5.67, III: 4.31)

(A) O=C(NS(=O)(=O)c1ccc([N+](=O)[O-])cc1)[C@H](Cc1ccccc1)N1C(=O)/C(=C/c2ccc(-c3ccc(C(F)(F)F)cc3)cc2)SC1=S
(B) COC(=O)c1ccc(-c2ccc(/C=C3\SC(=S)N([C@@H](Cc4ccccc4)C(=O)NS(=O)(=O)c4ccc(Cl)c([N+](=O)[O-])c4)C3=O)cc2)cc1
(C) CC(=O)N[C@@H](Cc1ccccc1)C(=O)Nc1ccc(C(=O)NS(=O)(=O)c2ccc(NCCSc3ccccc3)c([N+](=O)[O-])c2)cc1
**Query** Write the entries in order, lowest recorded pKi first. # respond with the labels, arranged in the requested order
**Result** C, B, A
